Just for reference, the supplement of paper PMC10567573 is where these values come from.

B1: MFF (parent)
chain: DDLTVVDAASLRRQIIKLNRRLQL

Variants of: B1
Experiment: protein stability index of a GFP-peptide fusion (GPS, HEK-293T) (PSI 1-6); higher = more stable;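 further: lentivirally expressed fusions sorted by FACS into six bins by GFP to DsRed ratio, PSI derived from sequencing read proportions per bin multiplied by bin number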
Conditions: c terminus: a fixed tail appended
readout.kind: protein stability index
Give the figure only, with no unit attached.

K17V: 1.66

Now turn to the next variant.
Find the recorded protein stability index belonging to T4F and report it.
2.08
